Let's look at some molecules and their measured pIC50.
TEST TARGET: hSCN3A sodium channels (Homo sapiens)
Construct: expressed in transfected cells
Sequence (Q9NY46 whole entry): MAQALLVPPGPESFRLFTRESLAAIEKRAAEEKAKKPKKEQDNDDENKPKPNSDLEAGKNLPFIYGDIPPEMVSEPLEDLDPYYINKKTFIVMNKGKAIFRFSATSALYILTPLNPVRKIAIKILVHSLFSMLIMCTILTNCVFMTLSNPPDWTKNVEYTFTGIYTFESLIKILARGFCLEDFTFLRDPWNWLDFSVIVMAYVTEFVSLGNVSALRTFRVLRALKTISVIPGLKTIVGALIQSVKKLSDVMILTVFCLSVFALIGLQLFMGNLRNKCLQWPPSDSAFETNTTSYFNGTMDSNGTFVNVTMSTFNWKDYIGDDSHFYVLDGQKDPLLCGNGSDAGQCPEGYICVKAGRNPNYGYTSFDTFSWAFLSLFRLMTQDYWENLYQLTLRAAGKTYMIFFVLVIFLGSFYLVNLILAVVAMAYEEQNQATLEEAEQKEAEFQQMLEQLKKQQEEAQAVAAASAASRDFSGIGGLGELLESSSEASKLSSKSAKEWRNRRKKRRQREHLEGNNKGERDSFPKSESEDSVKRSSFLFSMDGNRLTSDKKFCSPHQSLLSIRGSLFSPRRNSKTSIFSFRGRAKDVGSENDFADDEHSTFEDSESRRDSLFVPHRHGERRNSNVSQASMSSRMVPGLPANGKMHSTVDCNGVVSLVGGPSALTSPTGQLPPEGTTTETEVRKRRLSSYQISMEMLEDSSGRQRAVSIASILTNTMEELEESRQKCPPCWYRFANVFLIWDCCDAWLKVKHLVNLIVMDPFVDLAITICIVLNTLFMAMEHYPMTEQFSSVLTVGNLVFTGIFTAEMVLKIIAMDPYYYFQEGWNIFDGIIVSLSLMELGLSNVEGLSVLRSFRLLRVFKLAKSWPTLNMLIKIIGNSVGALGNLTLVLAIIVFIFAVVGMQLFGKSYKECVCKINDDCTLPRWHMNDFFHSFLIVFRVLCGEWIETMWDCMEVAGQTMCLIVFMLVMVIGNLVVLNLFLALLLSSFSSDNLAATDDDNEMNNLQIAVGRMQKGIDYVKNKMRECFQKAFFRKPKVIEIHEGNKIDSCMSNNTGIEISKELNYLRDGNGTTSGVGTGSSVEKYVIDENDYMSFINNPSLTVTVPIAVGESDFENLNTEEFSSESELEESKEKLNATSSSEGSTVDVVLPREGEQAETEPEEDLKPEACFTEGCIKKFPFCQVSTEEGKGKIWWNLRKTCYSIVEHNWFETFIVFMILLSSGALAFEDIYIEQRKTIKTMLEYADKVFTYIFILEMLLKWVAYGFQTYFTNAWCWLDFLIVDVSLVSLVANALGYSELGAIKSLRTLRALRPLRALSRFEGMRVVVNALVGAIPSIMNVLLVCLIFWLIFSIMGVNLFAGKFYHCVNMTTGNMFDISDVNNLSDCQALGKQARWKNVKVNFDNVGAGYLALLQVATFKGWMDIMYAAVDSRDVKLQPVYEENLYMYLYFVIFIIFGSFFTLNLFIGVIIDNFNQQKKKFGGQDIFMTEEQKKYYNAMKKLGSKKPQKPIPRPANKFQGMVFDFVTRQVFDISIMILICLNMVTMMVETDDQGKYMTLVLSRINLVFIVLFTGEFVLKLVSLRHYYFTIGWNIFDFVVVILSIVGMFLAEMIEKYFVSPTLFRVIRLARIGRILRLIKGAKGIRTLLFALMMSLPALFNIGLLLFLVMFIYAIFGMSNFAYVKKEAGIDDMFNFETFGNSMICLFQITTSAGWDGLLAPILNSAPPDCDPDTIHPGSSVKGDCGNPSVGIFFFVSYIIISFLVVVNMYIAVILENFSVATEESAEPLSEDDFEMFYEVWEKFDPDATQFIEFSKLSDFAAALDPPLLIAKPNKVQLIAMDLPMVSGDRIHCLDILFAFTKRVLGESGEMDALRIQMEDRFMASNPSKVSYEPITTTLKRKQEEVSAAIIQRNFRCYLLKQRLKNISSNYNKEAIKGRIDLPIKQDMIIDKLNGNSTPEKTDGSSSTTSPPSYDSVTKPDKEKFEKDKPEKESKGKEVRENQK
ASSAY SUMMARY: hSCN3A electrophysiology, whole-cell patch-clamp or PatchXpress 7000, estimated IC-50 (Table B)
Type: cell-based
ASSAY CONDITIONS: estimated IC-50; hSCN3A cells, whole-cell patch-clamp or PatchXpress 7000; read-out: SCN3A EIC-50
pIC50: −log10 of the molar value.

SMILES	RELATION SIGN	pIC50
O=C(NCc1ccc(C(F)(F)F)cc1)c1ccc(S(=O)(=O)Nc2cncs2)cc1	=	4.55
O=C(NCc1ccc(OC(F)(F)F)c(F)c1)c1ccc(S(=O)(=O)Nc2nccs2)c(Cl)c1	=	6.85
CC(C)(NC(=O)c1ccc(S(=O)(=O)Nc2nccs2)cc1)c1cccc(C(F)(F)F)c1	=	5.19
O=C(NCc1ccc(OC(F)(F)F)cc1)c1ccc(S(=O)(=O)Nc2ncc(Cl)s2)c(F)c1	=	7.15
O=C(NCc1cccc(OC(F)(F)F)c1)c1ccc(S(=O)(=O)Nc2ncc(Cl)s2)c(Cl)c1	=	5.66
O=C(NCc1ccc(C(F)(F)F)nc1)c1ccc(S(=O)(=O)Nc2nccs2)cc1	=	5.96
O=C(NCCc1ccccc1)c1ccc(S(=O)(=O)Nc2nccs2)cc1	=	5.30
O=C(NCc1ccc(Cl)c(Cl)c1)c1ccc(S(=O)(=O)Nc2nccs2)c(F)c1	=	7.22
O=C(NCc1cccc(OC(F)(F)F)c1)c1ccc(S(=O)(=O)Nc2nccs2)c(F)c1	=	6.72
O=C(NCCc1cccc(C(F)(F)F)c1)c1ccc(S(=O)(=O)Nc2nccs2)cc1	=	6.27
CCc1nsc(NS(=O)(=O)c2ccc(C(=O)NCc3ccc(C(F)(F)F)cc3)cc2)n1	=	4.86
O=C(NCc1ccc(C(F)(F)F)cc1)c1ccc(S(=O)(=O)Nc2ccn[nH]2)cc1	<	5.00
O=C(NCc1ccc(F)c(F)c1)c1ccc(S(=O)(=O)Nc2ncc(Cl)s2)cc1F	=	6.51
O=C(NC1(c2ccc(Cl)cc2)CC1)c1ccc(S(=O)(=O)Nc2nccs2)cc1	=	5.78
O=C(NCc1ccc(F)c(Cl)c1)c1ccc(S(=O)(=O)Nc2nccs2)c(F)c1	=	6.96
O=C(NCCc1ccc(Cl)cc1)c1ccc(S(=O)(=O)Nc2nccs2)cc1	=	6.18
CN(Cc1ccc(C(F)(F)F)cc1)C(=O)c1ccc(S(=O)(=O)Nc2ncc(Cl)s2)cc1	=	5.63
